- tgt: ZIKV NS5 (Zika virus, UniProt Q32ZE1)
- Sequence (Q32ZE1 2517-2781): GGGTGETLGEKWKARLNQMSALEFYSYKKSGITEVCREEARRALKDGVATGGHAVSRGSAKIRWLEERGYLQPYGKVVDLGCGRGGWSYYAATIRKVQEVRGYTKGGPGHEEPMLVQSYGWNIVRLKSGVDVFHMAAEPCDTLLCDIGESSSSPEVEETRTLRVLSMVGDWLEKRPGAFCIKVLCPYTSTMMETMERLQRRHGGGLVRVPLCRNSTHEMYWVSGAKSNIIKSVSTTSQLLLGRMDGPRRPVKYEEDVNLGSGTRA
- procedureText: Biochemical activity assay for ZIKV NS5 MTase (MTase-Glo)
- details: selectivity assay; read-out: ZIKV NS5 inhibition IC50
observationType: IC50 (µM)
Write the number in µM without appending the unit.

COc1ccc(-c2ocnc2C(=O)Nc2ccc3oc(=O)n(CC(=O)N4CCCCC4)c3c2)cc1 [RU-0833661]	73.7

Here is the next item to consider.
Input: // query IC50 value for entry O=C(Cn1cccc(-c2nc(-c3ccccc3)no2)c1=O)Nc1ccc(F)cc1F [RU-0833868]
Output: 122

====

Measured Emax by item
- tgt: ZIKV NS5 (Zika virus, UniProt Q32ZE1)
- procedureText: Biochemical activity assay for ZIKV NS5 MTase (MTase-Glo)
- details: 0.75 h; LUM % inhibition; read-out: ZIKV NS5 inhibition: Maximum measured
Give the value in % but do not write % after it.

Worked examples, 4 compounds total:
O=C(Cn1cccc(-c2nc(-c3ccccc3)no2)c1=O)Nc1ccc(F)cc1F	64.4
Cc1nc(C)c(C(=O)NCc2ccc(CNC(=O)c3ccc(O)c(F)c3)cc2)nc1C	18.4
Cc1cccc(C(=O)NCC2CCC3(CN(C(=O)c4cc(C)c5[nH]ncc5c4)C3)O2)c1F (stereo not shown)	12.9
COc1ccc(-c2ocnc2C(=O)Nc2ccc3oc(=O)n(CC(=O)N4CCCCC4)c3c2)cc1	66.6

Input: Given the compound `Cc1ccc(NC(=O)Cn2nnc3ccccc3c2=O)cc1S(=O)(=O)N1CCCCC1` , what is its reported Emax?
Output: 9.49

Input: Which Emax is reported for this compound? `Cc1cnc(C(=O)NCc2ccc(CNC(=O)c3ccc(O)c(C)c3)cc2)c(C)c1`
Output: 12.1

Input: I have this compound here, Cc1ccc(C)c(C(=O)NCC2CCC3(CN(C(=O)c4cc(C)c(O)c(C)c4)C3)O2)c1C (stereo not shown) , and I need its recorded Emax.
Output: 20.5

Input: So what does the record say about Emax for `CCn1nc(C)c(C(=O)NCCc2ccc(CNC(=O)c3ccc4[nH]ncc4c3)cc2)c1C` ?
Output: 15.9

Input: Requested field: Emax. Item: Cc1cc(C(=O)NCc2ccc(C(=O)NC(C)c3ccccc3C)nc2)ccc1O (stereo not shown)
Output: 11.2

Input: Query (compound): `C[C@@H](NC(=O)c1ccc(CNC(=O)c2ccc3[nH]ncc3c2)cc1)c1cccc(O)c1` ; field requested: Emax
Output: 12.5

====

- tgt: ZIKV NS5 (Zika virus)
- procedureText: Biochemical activity assay for ZIKV NS5 MTase (MTase-Glo)
- details: 0.75 h; LUM % inhibition; read-out: ZIKV NS5 inhibition: Maximum measured
observationType: Emax (%)
Hi! Could you send only the number? It should be in %, unit omitted.

Input: Form field - read-out: Emax; system: ZIKV NS5 (Zika virus); submitted item: Nc1ncnc2c1ncn2C1OC(CC(N)CCC(N)C(=O)O)C(O)C1O (stereo not shown)
Output: 109

Input: # value lookup — system ZIKV NS5 (Zika virus), readout Emax, item Cc1nccc(C(=O)NCC2CCC3(CN(C(=O)c4cc(C)c5[nH]ncc5c4)C3)O2)c1C (stereo not shown)
Output: 10.3

Input: Notebook entry, ZIKV NS5 (Zika virus) assay: Emax of Cc1cnc(C(C)NC(=O)c2ccc(CNC(=O)c3ccc(O)c(C)c3)cn2)nc1 (stereo not shown) = ?
Output: 12.7

Input: // map `Cc1cc(C)c(C(=O)NCc2ccc(CNC(=O)c3ccc(O)c(C)c3)cc2)cn1` to recorded Emax (system: ZIKV NS5 (Zika virus))
Output: 14.9

====

- tgt: human RNMT-RAM complex (Homo sapiens, UniProt O43148)
- Sequence (O43148 whole entry): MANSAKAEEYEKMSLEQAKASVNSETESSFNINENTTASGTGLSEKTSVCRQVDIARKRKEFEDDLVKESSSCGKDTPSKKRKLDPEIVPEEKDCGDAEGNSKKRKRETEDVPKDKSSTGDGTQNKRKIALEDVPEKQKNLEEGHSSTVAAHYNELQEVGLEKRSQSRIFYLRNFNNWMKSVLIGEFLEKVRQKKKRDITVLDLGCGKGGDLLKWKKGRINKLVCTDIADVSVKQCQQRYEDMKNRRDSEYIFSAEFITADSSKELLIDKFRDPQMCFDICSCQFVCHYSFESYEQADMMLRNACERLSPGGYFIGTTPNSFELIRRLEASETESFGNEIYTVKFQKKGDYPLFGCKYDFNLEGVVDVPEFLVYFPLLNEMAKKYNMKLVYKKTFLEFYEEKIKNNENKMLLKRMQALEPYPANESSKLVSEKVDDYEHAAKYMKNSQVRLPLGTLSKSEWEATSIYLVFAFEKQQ
- Sequence (Q9BTL3 whole entry partner): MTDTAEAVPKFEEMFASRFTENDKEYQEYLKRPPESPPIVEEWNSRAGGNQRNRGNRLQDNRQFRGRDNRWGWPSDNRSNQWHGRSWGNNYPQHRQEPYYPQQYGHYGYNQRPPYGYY
- procedureText: Biochemical activity assay for the human RNMT-RAM complex (MTase-Glo)
- details: fit of concentration-response curve
Record rule met whenever hRNMT-RAM inhibition: Hill slope is at 2 or higher; record rule not met when lower.

Before answering, review these 3 worked examples.
Cc1cnc(C(=O)NCc2ccc(CNC(=O)c3ccc(O)c(C)c3)cc2)c(C)c1	rule met
Nc1ncnc2c1ncn2C1OC(CC(N)CCC(N)C(=O)O)C(O)C1O (stereo not drawn)	rule not met
Cc1ccc(C)c(C(=O)NCC2CCC3(CN(C(=O)c4cc(C)c(O)c(C)c4)C3)O2)c1C (stereo not drawn)	rule met

Input: Could you tell me if the measured hRNMT-RAM inhibition: Hill slope of Cc1cccc(C(=O)NCC2CCC3(CN(C(=O)c4cc(C)c5[nH]ncc5c4)C3)O2)c1F (stereo not drawn) reaches 2 or more?
Output: rule not met

Input: Assess whether reported hRNMT-RAM inhibition: Hill slope for `Cc1nc(C)c(C(=O)NCc2ccc(CNC(=O)c3ccc(O)c(F)c3)cc2)nc1C` sits at 2 or higher.
Output: rule not met

====

- procedureText: Cytotoxicity in Huh-7.5 cells
- Assay type: cell-based, Homo sapiens
- details: human, n = 3
observationType: CC50

Input: What value of measured CC50 is listed for `Cc1cc(S(=O)(=O)c2cc(C(=O)NCc3c(F)ccc4cnn(C5CC5)c34)n(C)c2C)cc2cn[nH]c12` ?
Output: ≥ 3000 nM

====

- procedureText: SAH counterscreen inhibition (counterscreen of the MTase-Glo luminescence readout)
- details: fit of concentration-response curve
observationType: SAH counterscreen inhibition: Hill slope
A bare number is all that is needed in reply.

CCn1nc(C)c(C(=O)NCCc2ccc(CNC(=O)c3ccc4[nH]ncc4c3)cc2)c1C	6.42
Cc1cnc(C(C)NC(=O)c2ccc(CNC(=O)c3ccc(O)c(C)c3)cn2)nc1 (centres unmarked)	13.5
Cc1ccc(C)c(C(=O)NCC2CCC3(CN(C(=O)c4cc(C)c(O)c(C)c4)C3)O2)c1C (centres unmarked)	-6.31
C[C@@H](NC(=O)c1ccc(CNC(=O)c2ccc3[nH]ncc3c2)cc1)c1cccc(O)c1	11.5
COc1ccc(-c2ocnc2C(=O)Nc2ccc3oc(=O)n(CC(=O)N4CCCCC4)c3c2)cc1	0.36

Input: Quick one: SAH counterscreen inhibition: Hill slope of `Cc1ccc(NC(=O)Cn2nnc3ccccc3c2=O)cc1S(=O)(=O)N1CCCCC1` ?
Output: -3.01

====

- procedureText: SAH counterscreen inhibition (counterscreen of the MTase-Glo luminescence readout)
- details: read-out: SAH counterscreen inhibition: IC50; LUM % inhibition
pIC50: −log10 of the molar value.
observationType: pIC50

Example cases with answers are listed next.
Cc1cnc(C(=O)NCc2ccc(CNC(=O)c3ccc(O)c(C)c3)cc2)c(C)c1 [RU-0834201]	< 3.90
Nc1ncnc2c1ncn2C1OC(CC(N)CCC(N)C(=O)O)C(O)C1O (stereo not drawn) [RU-0425548]	< 4.20
Cc1ccc(C)c(C(=O)NCC2CCC3(CN(C(=O)c4cc(C)c(O)c(C)c4)C3)O2)c1C (stereo not drawn) [RU-0834178]	< 3.90
O=C(Cn1cccc(-c2nc(-c3ccccc3)no2)c1=O)Nc1ccc(F)cc1F [RU-0833868]	< 3.90
Cc1ccc(NC(=O)Cn2nnc3ccccc3c2=O)cc1S(=O)(=O)N1CCCCC1 [RU-0833928]	< 3.90

Attention now shifts to the item below.
Input: Which pIC50 value is on record for Cc1cnc(C(C)NC(=O)c2ccc(CNC(=O)c3ccc(O)c(C)c3)cn2)nc1 (stereo not drawn) [RU-0834184] ?
Output: < 3.90

====

Entries and their SAH counterscreen inhibition: Maximum response values follow.
- procedureText: SAH counterscreen inhibition (counterscreen of the MTase-Glo luminescence readout)
- details: LUM % inhibition
I only need the number, in %, no unit after it.

Sample answers from the record:
Cc1cccc(C(=O)NCC2CCC3(CN(C(=O)c4cc(C)c5[nH]ncc5c4)C3)O2)c1F (stereo not shown)	16.2
Cc1nccc(C(=O)NCC2CCC3(CN(C(=O)c4cc(C)c5[nH]ncc5c4)C3)O2)c1C (stereo not shown)	12.6
Cc1ccc(NC(=O)Cn2nnc3ccccc3c2=O)cc1S(=O)(=O)N1CCCCC1	21.6
Cc1nc(C)c(C(=O)NCc2ccc(CNC(=O)c3ccc(O)c(F)c3)cc2)nc1C	16.2

Input: I am curious: what SAH counterscreen inhibition: Maximum response value has been reported for `O=C(Cn1cccc(-c2nc(-c3ccccc3)no2)c1=O)Nc1ccc(F)cc1F` ?
Output: 21.5

Input: Item under review: `C[C@@H](NC(=O)c1ccc(CNC(=O)c2ccc3[nH]ncc3c2)cc1)c1cccc(O)c1` . Reported SAH counterscreen inhibition: Maximum response?
Output: 14.4

Input: What value of SAH counterscreen inhibition: Maximum response has been reported for the following compound? `Cc1cc(C)c(C(=O)NCc2ccc(CNC(=O)c3ccc(O)c(C)c3)cc2)cn1`
Output: 12.2

Input: Given Cc1cnc(C(C)NC(=O)c2ccc(CNC(=O)c3ccc(O)c(C)c3)cn2)nc1 (stereo not shown) , state its recorded SAH counterscreen inhibition: Maximum response.
Output: 16.9

Input: Please give the measured SAH counterscreen inhibition: Maximum response for this compound: `Cc1cnc(C(=O)NCc2ccc(CNC(=O)c3ccc(O)c(C)c3)cc2)c(C)c1`
Output: 14.6

Input: Item Cc1cc(C(=O)NCc2ccc(C(=O)NC(C)c3ccccc3C)nc2)ccc1O (stereo not shown) has what recorded SAH counterscreen inhibition: Maximum response?
Output: 16.1
